Test: NCI Yeast Anticancer Drug Screen. Data for the rad50 strain (AID 155);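 note: 0% = growth of vehicle-only cultures of the same strain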
Conditions: S. cerevisiae rad50 strain growth inhibition; at 33.0 µM; hits give high values
Compounds without any hit were thinned out: in the full panel of roughly 79,000, 15% have a hit.
Below, each of the compounds is paired with its reported growth inhibition value.
Just the number in %, nothing appended.

Some compounds with known growth inhibition results, for comparison:
[
  {
    "compound": "Clc1ccc2c(c1)N(CCCN1CCCC13CCCCC3)c1ccccc1S2",
    "growth inhibition / %": 4
  },
  {
    "compound": "c1ccc(Cc2cc(-c3ccccc3)n[nH]2)cc1",
    "growth inhibition / %": 5
  },
  {
    "compound": "CC(=O)OCC1OC2OC(=O)NC2C(OC(C)=O)C1OC(C)=O (stereo not given)",
    "growth inhibition / %": -1
  },
  {
    "compound": "Nc1ccn(C2OC(COP(=O)(O)O)C(O)C2O)c(=O)n1 (stereo not given)",
    "growth inhibition / %": 33
  },
  {
    "compound": "CCCCCCSc1ncnc2[nH]ncc12",
    "growth inhibition / %": 4
  },
  {
    "compound": "O=[N+]([O-])c1cccc2nc3ccccc3c(NCCCn3ccnc3[N+](=O)[O-])c12",
    "growth inhibition / %": 94
  }
]

Moving on to the next compound.
Any idea what growth inhibition was measured for `NC1=NNC2(C(N)=N1)c1ccccc1-c1ccccc12` ?
32
